Measured Ki by item
Target: MRGPRX2 (Homo sapiens (Human))
Sequence (Q96LB1 whole entry): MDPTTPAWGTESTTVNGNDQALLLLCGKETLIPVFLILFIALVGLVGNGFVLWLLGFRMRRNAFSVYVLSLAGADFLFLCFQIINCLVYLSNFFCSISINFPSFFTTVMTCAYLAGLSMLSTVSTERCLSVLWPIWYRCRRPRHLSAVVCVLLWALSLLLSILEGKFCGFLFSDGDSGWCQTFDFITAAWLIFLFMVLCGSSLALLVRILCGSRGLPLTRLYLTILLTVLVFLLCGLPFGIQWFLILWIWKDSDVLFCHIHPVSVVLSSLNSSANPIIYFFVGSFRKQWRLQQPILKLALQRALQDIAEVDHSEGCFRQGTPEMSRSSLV
Test: FLIPR Ca2+ assay, antagonist mode, tetracycline-inducible MRGPRX2 stable cell line
Format: cell-based
Details: Table 1; read-out: pKi (calc.) (converted)
Protocol: FLIPR Ca2+ assay. […] NK1 stably expressing cell were maintained in DMEM containing 10% (v/v) FBS, 100 units ml^−1 penicillin G and 100 μg ml^−1 streptomycin. […] Once loaded in FLIPR (Molecular Devices), basal fluorescence was measured for 10 s, then 10 μl of test compounds were added followed by continued fluorescence measurement for an additional 120 s. […] Data were normalized to % reference compound stimulation and analyzed using nonlinear regression “log(agonist) vs. response” in GraphPad Prism 9.0.
recorded.endpoint: Ki (nM)

INSERT INTO results (compound, endpoint_result) VALUES
  ('COc1cccnc1Cn1c(=S)[nH]c2ccccc2c1=O [Compound 8]', 63.1),
  ('O=c1c2ccccc2[nH]c(=S)n1Cc1ccccc1 [Compound 1]', 63.1),
  ('O=c1c2ccccc2[nH]c(=S)n1Cc1ccon1 [Compound 5]', 1000),
  ('O=c1c2ccccc2[nH]c(=S)n1Cc1ccccn1 [ZINC16991592, reference compound]', 2340);
